Origin of measurements: patent US20240262835A1

Some molecules, each annotated with its measured T1/2.
assay: In vivo pharmacokinetics assay in mice via IV and PO; parameters: species or system ICR mice; conditions: PO 10 mg/kg
The reply should contain only the number, in h.

Study these solved cases before continuing.
| molecule | measurement-label | number |
| --- | --- | --- |
| CN(C(=O)c1cc2c(cn1)nc(N)c1cncn12)C1CC(F)(F)c2cc(C(F)(F)F)ccc21 (stereo not shown) [Compound 24] | T1/2 | 4.41 |
| CN(C(=O)c1cc2c(cn1)nc(N)c1cncn12)C1COc2cc(C(F)(F)F)ccc21 (stereo not shown) [Compound 19] | T1/2 | 4.88 |
| CN(C(=O)c1ccc2nc(N)c3cncn3c2c1)C1COc2cc(C(F)(F)F)ccc21 (stereo not shown) [Compound 17] | T1/2 | 5.07 |

Moving on to another molecule below.
**Query** Name the reported T1/2 value associated with the molecule CN(C(=O)c1cc2c(cn1)nc(N)c1cncn12)C1COc2cc(C(F)(F)F)ccc21 (stereo not shown) [Compound 21]
**Result** 6.67
